Molecular target: T1, human IL-11Rα, FLAG-tagged, expressed at the surface of transiently transfected cells (human, UniProt Q14626 23-422)
T1 construct: whole, on cells; also called IL-11Rα expressing HEK cells; FLAG-tagged human IL-11Rα; not shown: tag
T1 sequence (looked up): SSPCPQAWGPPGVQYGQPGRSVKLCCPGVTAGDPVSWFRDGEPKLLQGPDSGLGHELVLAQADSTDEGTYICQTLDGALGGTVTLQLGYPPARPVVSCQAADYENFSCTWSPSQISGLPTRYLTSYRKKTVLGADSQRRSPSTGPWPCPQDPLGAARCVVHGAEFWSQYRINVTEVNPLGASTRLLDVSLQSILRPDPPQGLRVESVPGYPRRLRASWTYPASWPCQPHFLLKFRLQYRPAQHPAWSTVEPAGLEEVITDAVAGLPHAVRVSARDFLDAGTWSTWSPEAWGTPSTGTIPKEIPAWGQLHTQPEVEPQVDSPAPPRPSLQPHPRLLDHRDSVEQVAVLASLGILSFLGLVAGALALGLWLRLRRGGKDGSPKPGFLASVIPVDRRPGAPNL
Test: same assay; percent relative to the positive control anti-FLAG antibody (100%)
Provide the recorded % positive for the entries that follow.
Answer in %, number only, no unit symbol.

In: Quick one: % positive for BSO-13B10 (antibody, V domains shown, Mouse monoclonal from hybridoma; also called RA9) VH: QVQLKESGPGLVAPSQSLSITCTVSGFSLTSFSISWVRQPPGKGLEWLGGIWTGGGTNYNSALKPRLSISKDNSKSQVFLKMNSLQTDDTARYYCARNSNYPSGFAYWGQGTLVTVSA VL: DIVMTQSQKFMSTSVGDRVSVTCKASQNVGSNVAWYQQKAGQSPKALIYSASYRYSGVPDRFTGSGSGTDFTLTISNVQSEDLAEYFCQQYNSYPLTFGAGTKLELK ?
Out: 35

In: Now consider BSO-9A7 (antibody, V domains shown, Mouse monoclonal from hybridoma; also called RA7) VH: QVQLQQPGAELVRPGSSVKLSCKASGYTFTNYWMHWLKQRPVQGLEWIGNIGPSDSKTHYNQKFKDKATLTVDKSSSTAYMQLNSLTSEDSAVYYCARGDYVLFTYWGQGTLVTVSA VL: DIVLTQSPATLSMTPGDSVSLSCRASQSISNNLHWYQQKSHESPRLLIKYASQSISGIPSRFSGSGSGTDFTLSFNSVETEDFGVYFCQQRYSWPLTFGAGTKLEMK and answer again.
Out: 111

In: Now consider BSO-5E5 (antibody, V domains shown, Mouse monoclonal from hybridoma; also called RA5) VH: DVQLQESGPGLVKPSQSLSLTCSVTGYSITSDYYWNWIRQFPGNKLEWMGYISYDSSNNYNPSLKNRISITRDTSKNQFFLKLNSVTTEDTATYYCASVGYYYVSDWYFDVWGTGTTVTVSS VL: DIVMSQSPSSLPVSVGENVTMSCKSSQSLLYGSNQKNYLAWYQQKPGQSPKLLIYWASTRESGVPDRFTGSGSGTDFTLTISSVKAEDLAVYFCQQYYSYPRTFGGGTKLEIK and answer again.
Out: 28
